molecular target: human recombinant serotonin (5-Hydroxytryptamine) 5-HT7 receptor (Homo sapiens); assay: Serotonin 5-HT7 radioligand binding assay ([3H]LSD); settings: compound at 0.1 μM; 5.5 nM [3H]LSD; CHO cells; read-out: Percent Inhibition of ligand binding, Serotonin (0.1 μM) 5-HT7
Sequence (P34969 whole entry): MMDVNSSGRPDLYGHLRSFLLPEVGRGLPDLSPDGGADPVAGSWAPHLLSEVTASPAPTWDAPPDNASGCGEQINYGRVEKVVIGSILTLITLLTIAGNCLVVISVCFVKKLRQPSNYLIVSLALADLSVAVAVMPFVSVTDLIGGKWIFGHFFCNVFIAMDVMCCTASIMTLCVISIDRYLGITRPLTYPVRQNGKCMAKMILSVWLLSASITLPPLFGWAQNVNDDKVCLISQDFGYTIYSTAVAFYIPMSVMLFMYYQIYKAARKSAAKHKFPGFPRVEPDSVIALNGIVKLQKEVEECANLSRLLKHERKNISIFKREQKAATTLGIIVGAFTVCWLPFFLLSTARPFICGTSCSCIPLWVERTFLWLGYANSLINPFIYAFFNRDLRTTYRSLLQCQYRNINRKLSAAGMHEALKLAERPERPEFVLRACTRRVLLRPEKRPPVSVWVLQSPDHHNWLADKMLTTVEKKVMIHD
Label rule, in plain words: inhibition at 0.1 µM of 10% and up is fulfilled, under 10% is not fulfilled.

In [3]: df
Out[3]:
                                   compound                           measured_target  class_assignment
0  CCC(O)(Cn1c2c(c3cc(C)ccc31)CN(C)CC2)c1ccncc1 (centres unmarked)  human recombinant serotonin (5-Hydroxytryptamine) 5-HT7 receptor (Homo sapiens)         fulfilled
1  Cc1ccc(CCn2c3c(c4cc(Cl)ccc42)CN(C)C(C)C3)cn1 (centres unmarked)  human recombinant serotonin (5-Hydroxytryptamine) 5-HT7 receptor (Homo sapiens)         fulfilled
2  CC[C@@](O)(Cn1c2c(c3cc(C)ccc31)CN(C)CC2)c1ccncc1  human recombinant serotonin (5-Hydroxytryptamine) 5-HT7 receptor (Homo sapiens)         fulfilled
3  Cc1ccc2c(c1)c1c(n2CC(C)(O)c2ccncc2)CCN(CC(F)(F)F)C1 (centres unmarked)  human recombinant serotonin (5-Hydroxytryptamine) 5-HT7 receptor (Homo sapiens)     not fulfilled
4  Cc1ccc2c(c1)c1c(n2CCc2ccc(C)nc2)CCN(CC(F)(F)F)C1  human recombinant serotonin (5-Hydroxytryptamine) 5-HT7 receptor (Homo sapiens)     not fulfilled
5  CCCC[C@@](O)(Cn1c2c(c3cc(Cl)ccc31)CN(C)CC2)c1ccc(F)cc1  human recombinant serotonin (5-Hydroxytryptamine) 5-HT7 receptor (Homo sapiens)     not fulfilled
6  CCCC[C@](O)(Cn1c2c(c3cc(Cl)ccc31)CN(C)CC2)c1ccc(F)cc1  human recombinant serotonin (5-Hydroxytryptamine) 5-HT7 receptor (Homo sapiens)     not fulfilled
7  Cc1ccc2c(c1)c1c(n2CC2(c3ccncc3)CC2)CCN(C)C1  human recombinant serotonin (5-Hydroxytryptamine) 5-HT7 receptor (Homo sapiens)         fulfilled

---

List of inhibition at 0.1 µM values.
target: human recombinant histamine H1 receptor (Homo sapiens, UniProt P35367); assay: Histamine H1 radioligand binding assay ([3H]Pyrilamine); settings: compound at 0.1 μM, receptor expressed in CHO cells
Sequence (P35367 whole entry): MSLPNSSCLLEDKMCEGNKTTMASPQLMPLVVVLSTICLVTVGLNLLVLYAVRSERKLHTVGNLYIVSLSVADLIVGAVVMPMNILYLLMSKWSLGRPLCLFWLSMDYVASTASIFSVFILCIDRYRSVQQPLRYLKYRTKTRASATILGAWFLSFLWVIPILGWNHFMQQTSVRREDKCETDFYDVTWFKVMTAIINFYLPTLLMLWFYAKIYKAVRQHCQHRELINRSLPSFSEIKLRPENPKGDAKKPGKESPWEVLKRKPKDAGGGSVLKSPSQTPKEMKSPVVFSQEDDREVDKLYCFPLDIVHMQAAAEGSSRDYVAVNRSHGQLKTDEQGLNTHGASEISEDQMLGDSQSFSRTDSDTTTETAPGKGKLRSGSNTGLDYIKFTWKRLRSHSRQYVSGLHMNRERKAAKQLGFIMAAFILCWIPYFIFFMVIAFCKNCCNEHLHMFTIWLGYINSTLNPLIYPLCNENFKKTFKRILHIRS
QUANTITY KIND: inhibition at 0.1 µM (%)

>>> df
                                   compound         quantity_kind  endpoint_value
0  CC[C@@](O)(Cn1c2c(c3cc(C)ccc31)CN(C)CC2)c1ccncc1 [Compound 1-62]  inhibition at 0.1 µM               3
1  CCCC[C@](O)(Cn1c2c(c3cc(Cl)ccc31)CN(C)CC2)c1ccc(F)cc1 [Compound 1-61]  inhibition at 0.1 µM              -7
2  CC[C@](O)(Cn1c2c(c3cc(C)ccc31)CN(C)CC2)c1ccncc1 [Compound 1-63]  inhibition at 0.1 µM              18
3  CC[C@@](O)(Cn1c2c(c3cc(C)ccc31)CN(C)CC2)c1ccc(F)cc1 [Compound 1-66]  inhibition at 0.1 µM             -12
4  Cc1ccc2c(c1)c1c(n2CCc2ccc(C)nc2)CCN(CC(F)(F)F)C1 [Compound 1-65]  inhibition at 0.1 µM              11
5  CC[C@](O)(Cn1c2c(c3cc(C)ccc31)CN(C)CC2)c1ccc(F)cc1 [Compound 1-60]  inhibition at 0.1 µM              10
6  CCCC[C@@](O)(Cn1c2c(c3cc(Cl)ccc31)CN(C)CC2)c1ccc(F)cc1 [Compound 1-67]  inhibition at 0.1 µM              -2
